tested.on: Proteasome Macropain subunit MB1 (Homo sapiens)
Sequence (P28074 whole entry): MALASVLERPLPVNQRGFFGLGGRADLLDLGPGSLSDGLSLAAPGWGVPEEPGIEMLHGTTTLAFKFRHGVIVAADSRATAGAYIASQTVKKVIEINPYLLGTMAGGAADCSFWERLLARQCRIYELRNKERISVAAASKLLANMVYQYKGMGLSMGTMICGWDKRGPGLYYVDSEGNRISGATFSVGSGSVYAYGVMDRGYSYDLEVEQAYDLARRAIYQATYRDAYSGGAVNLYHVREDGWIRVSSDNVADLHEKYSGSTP
assay.remarks: Inhibition of chymotrypsin-like activity of human 20S proteasome beta 5 subunit assessed as Suc-Leu-Leu-Val-Tyr-AMC substrate hydrolysis after 10 mins by fluorometric analysis
API: label(entry) gives Yes if the entry's Ki is strictly smaller than 1 µM; on equality or larger values it gives No.

compound: CC(C)CCNC(=O)Cn1ccc(N2CCOCC2)cc1=O
tested.on: Proteasome Macropain subunit MB1 (Homo sapiens)
class.assignment: No
//
compound: COc1ccc(NC(=O)Cn2ccc(Nc3ccccc3)cc2=O)cc1
tested.on: Proteasome Macropain subunit MB1 (Homo sapiens)
class.assignment: No
//
compound: CC(C)CCNC(=O)Cn1cc(Br)c2ncccc2c1=O
tested.on: Proteasome Macropain subunit MB1 (Homo sapiens)
class.assignment: Yes
//
compound: O=C(Cn1ccccc1=O)NC12CC3CC(CC(C3)C1)C2
tested.on: Proteasome Macropain subunit MB1 (Homo sapiens)
class.assignment: No
//
compound: CC(C)CCNC(=O)Cn1ccc(Nc2ccccc2)cc1=O
tested.on: Proteasome Macropain subunit MB1 (Homo sapiens)
class.assignment: Yes
//
compound: CC(C)CCNC(=O)Cn1ccc2c(c1=O)CCCN2
tested.on: Proteasome Macropain subunit MB1 (Homo sapiens)
class.assignment: No

Now look at this one.
Data request: Quick check: Ki of "O=C(Cn1ccc(Nc2ccccc2)cc1=O)Nc1ccccc1C(=O)c1ccccc1" under 1 µM?
Data returned: No
